Target: Aβ1–42 peptides (Homo sapiens, UniProt P05067)
Sequence (P05067 672-713 limits assumed): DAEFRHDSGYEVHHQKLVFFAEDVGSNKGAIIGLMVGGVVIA
Test: Thioflavin T (ThT) Aβ aggregation assay
Conditions: isolated compounds, 6.25-100 µM, ThT fluorescence; read-out: Inhibition of Aβ aggregation IC50
pIC50: −log10 of the molar value.

{"COMPOUND": "Oc1cc(O)c2c(c1)O[C@H](c1ccc(O)c(O)c1)[C@@H](O)[C@@H]2c1c(O)cc(O)c2c1O[C@H](c1ccc(O)c(O)c1)[C@H](O)C2 [Compound 9, procyanidin B4]", "pIC50": 4.49}
{"COMPOUND": "Oc1cc(O)c2c(c1)O[C@H](c1ccc(O)c(O)c1)[C@@H](O)[C@@H]2c1c(O)cc(O)c2c1O[C@H](c1ccc(O)c(O)c1)[C@@H](O)C2 [Compound 8, procyanidin B3]", "pIC50": 4.84}
{"COMPOUND": "O=C(C=Cc1ccc(O)cc1)OCC1OC(Oc2c(-c3ccc(O)c(O)c3)oc3cc(O)cc(O)c3c2=O)C(O)C(O)C1O (stereo not drawn) [Compound 13, helichrysoside]", "pIC50": 4.35}
